# System: ACHN renal
# ASSAY_REMARKS: NCI tumour cell line growth inhibition, 48 h
MEASURED_METRIC: GI50

The cases that follow already have their GI50 on record.
{"columns": ["MOLECULE", "TARGET_DESC", "MEASURED"],
 "data": [
  ["CC(C)C[C@@H]1NC(=O)[C@@H]2CCCN2C(=O)[C@@H]2CCCN2C(=O)[C@H](CC(C)C)NC(=O)[C@H](CO)NC(=O)[C@H](CCCCN)NC(=O)[C@H]([C@H](C)O)NC(=O)[C@@H]2CCCC[C@@H](NC1=O)C(=O)N[C@@H](Cc1ccccc1)C(=O)N1CCC[C@H]1C(=O)N[C@@H](CC(=O)O)C(=O)NCC(=O)N[C@@H](CCCN=C(N)N)C(=O)N2", "ACHN renal", "> 50 µM"],
  ["C=C1CC[C@@H]2[C@](C)(COC(C)=O)[C@H](OC(C)=O)CC[C@@]2(C)[C@@H]1C/C=C1/C(=O)OC[C@H]1OC(C)=O", "ACHN renal", "1.71 µM"],
  ["O=C(/C=C/c1ccc(C(F)(F)F)cc1)c1ccc(Nc2nc(NCCO)nc(N3CCOCC3)n2)cc1", "ACHN renal", "1.86 µM"],
  ["Oc1ccc(N=Nc2ccc(N=Nc3ccccc3)cc2)cc1", "ACHN renal", "1.49 µM"],
  ["CS(=O)(=O)Nc1cc(-c2ccc3ncnc(Nc4ccc5c(cnn5Cc5ccccc5F)c4)c3c2)cnc1Cl", "ACHN renal", "3.24 µM"]
]}

Problem: // lookup GI50 for `CCCCCCCCCCCC[n+]1ccc(C(N)=O)cc1`
Solution: 6.06 µM

Problem: Look up GI50 for this molecule: `C[CH2][Sn]([Cl])([Cl])[CH2]C`
Solution: 24.1 µM

Problem: Which GI50 is listed for COc1ccc2c(c1)OC(N)=C(C#N)C2c1ccc(F)cc1 (centres undefined) ?
Solution: 6.35 µM

Problem: Which value of GI50 has been reported for `NCCCCN(Cc1nc2ccccc2[nH]1)[C@H]1CCCc2cccnc21` in the records?
Solution: 26.3 µM

Reference source: PubChem BioAssay (NCI)
